Each item that follows carries a reported log10 of Kd.
Molecular target: human C5 complement protein (Homo sapiens)
Sequence (P01031 19-1676): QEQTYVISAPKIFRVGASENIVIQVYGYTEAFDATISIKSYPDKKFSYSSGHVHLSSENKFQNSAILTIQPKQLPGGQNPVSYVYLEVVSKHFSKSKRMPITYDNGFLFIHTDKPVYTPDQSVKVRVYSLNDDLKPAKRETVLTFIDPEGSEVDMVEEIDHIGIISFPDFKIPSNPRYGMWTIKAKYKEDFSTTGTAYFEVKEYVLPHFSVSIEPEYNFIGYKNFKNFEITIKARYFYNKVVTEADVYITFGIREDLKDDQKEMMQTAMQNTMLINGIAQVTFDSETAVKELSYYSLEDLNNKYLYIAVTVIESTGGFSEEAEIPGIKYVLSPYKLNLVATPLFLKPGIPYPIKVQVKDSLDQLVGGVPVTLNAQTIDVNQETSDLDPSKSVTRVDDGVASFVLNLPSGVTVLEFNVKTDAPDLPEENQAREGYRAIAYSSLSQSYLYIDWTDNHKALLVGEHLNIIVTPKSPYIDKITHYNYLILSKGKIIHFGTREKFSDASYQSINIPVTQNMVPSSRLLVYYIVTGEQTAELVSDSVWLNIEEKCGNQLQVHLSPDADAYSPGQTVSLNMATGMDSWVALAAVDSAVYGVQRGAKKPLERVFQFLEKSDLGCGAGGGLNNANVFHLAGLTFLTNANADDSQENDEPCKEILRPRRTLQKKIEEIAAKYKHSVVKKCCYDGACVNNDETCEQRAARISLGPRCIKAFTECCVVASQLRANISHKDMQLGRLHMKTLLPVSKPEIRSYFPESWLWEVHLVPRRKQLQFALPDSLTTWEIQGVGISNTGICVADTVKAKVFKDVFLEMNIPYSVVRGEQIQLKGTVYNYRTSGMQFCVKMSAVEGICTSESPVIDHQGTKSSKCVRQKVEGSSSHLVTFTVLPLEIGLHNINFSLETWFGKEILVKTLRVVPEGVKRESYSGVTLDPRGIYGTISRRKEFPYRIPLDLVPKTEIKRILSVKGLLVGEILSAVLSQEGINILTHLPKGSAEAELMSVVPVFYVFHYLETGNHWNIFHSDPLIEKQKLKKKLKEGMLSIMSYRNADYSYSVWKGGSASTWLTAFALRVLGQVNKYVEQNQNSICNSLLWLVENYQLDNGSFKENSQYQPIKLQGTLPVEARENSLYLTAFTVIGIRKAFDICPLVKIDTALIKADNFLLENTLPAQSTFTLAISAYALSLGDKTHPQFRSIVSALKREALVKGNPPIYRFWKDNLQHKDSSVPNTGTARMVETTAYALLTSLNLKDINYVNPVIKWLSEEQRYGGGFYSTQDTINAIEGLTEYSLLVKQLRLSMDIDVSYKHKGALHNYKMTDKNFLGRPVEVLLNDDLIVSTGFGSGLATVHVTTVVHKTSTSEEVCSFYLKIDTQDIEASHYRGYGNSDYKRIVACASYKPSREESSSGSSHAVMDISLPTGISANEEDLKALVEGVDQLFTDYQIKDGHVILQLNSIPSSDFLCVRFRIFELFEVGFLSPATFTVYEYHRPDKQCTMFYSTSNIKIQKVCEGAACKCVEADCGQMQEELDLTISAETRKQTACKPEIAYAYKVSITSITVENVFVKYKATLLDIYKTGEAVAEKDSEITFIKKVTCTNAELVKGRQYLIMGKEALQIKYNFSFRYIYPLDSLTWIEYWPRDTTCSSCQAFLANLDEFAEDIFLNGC
Experiment: Surface plasmon resonance (SPR), immobilized human C5, 37° C. (Example 18, Table 24)
Format: binding
Settings: lowest value obtained where a range of concentrations was analyzed
Values below are the log10 of the recorded Kd, with nM as the unit.

Before answering, review these 5 worked examples.
1) CCCCCOc1cc(N2CCCN(Cc3ccnc4c3c(Cl)cn4CCO)C2=O)ccc1OC [CU0576]	-0.66
2) COc1cc(CC(=O)N2CCOCC2)ccc1CN1CCCN(c2ccc(OC)c(OCCCC3CC3(F)F)c2)C1=O (centres unmarked) [CU0601]	-0.88
3) COc1cc(CNC(=O)c2cocn2)ccc1CN1CCCN(c2ccc(OC)c(OCCCCC3CC3)c2)C1=O [CU0571]	-0.32
4) CCCCCOc1cc(N2CCCN(Cc3ccnc4c3c(Cl)cn4CC(=O)N3CC[C@H](OC)C3)C2=O)ccc1OC [CU0504]	-0.60
5) CCCCCOc1cc(N2CCCN(Cc3ccc(CNC(=O)c4ccco4)cc3OC)C2=O)ccc1OC [CU0597]	-0.94

Reported log10 of Kd of CCCCCOc1cc(N2CCCN(Cc3ccnc4c3c(Cl)cn4CC(=O)N(C)OC)C2=O)ccc1OC [CU0527] : -1.39

CCCCCOc1cc(N2CCCN(Cc3ccc(CCN4[C@H](C)CC[C@@H]4C)cc3OC)C2=O)ccc1OC [CU0690] yielded log10 of Kd of 0.23

Noted for COc1ccc(N2CCCN(Cc3cccc4c3ccn4CC(=O)N(C)C)C2=O)cc1OCCC[C@H]1C[C@@H]1C (racemic) [CU0681] : its log10 of Kd reads 0.34
